The entries below are paired with their reported Ki.
target: human GlyT1c transporter (Homo sapiens (Human), UniProt P48067); assay: Radioligand binding assays using recombinant CHO cell membranes expressing human GlyT1; conditions: radioligand binding, human GlyT1c transporter-expressing CHO cell membranes
Sequence (P48067 whole entry): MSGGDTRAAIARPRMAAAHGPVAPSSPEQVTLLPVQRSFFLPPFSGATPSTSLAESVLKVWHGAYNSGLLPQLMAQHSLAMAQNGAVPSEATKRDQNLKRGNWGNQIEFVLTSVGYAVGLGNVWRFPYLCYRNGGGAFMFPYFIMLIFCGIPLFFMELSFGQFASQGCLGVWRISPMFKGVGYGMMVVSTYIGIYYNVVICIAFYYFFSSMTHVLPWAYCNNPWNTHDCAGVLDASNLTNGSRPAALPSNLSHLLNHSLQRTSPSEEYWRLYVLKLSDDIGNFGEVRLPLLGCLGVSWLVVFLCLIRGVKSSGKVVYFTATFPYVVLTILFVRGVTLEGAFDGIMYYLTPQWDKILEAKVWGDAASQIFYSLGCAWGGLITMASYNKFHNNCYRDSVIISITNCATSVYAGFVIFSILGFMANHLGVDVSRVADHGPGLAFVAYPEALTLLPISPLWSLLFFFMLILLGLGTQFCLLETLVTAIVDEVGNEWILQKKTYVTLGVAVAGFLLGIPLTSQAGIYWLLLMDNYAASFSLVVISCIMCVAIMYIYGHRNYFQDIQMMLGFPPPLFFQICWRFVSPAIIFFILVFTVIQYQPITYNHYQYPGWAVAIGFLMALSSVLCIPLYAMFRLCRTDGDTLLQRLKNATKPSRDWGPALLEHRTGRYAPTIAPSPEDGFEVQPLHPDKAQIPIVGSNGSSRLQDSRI
Parameter: Ki

INSERT INTO assay_data (molecule, result) VALUES
  ('Cc1cc(S(=O)(=O)N2CC(Nc3ccc(F)c(F)c3)C(c3ccccc3)C2)n(C)n1 (stereo not drawn)', '≤ 10000 nM'),
  ('Cn1cnc(S(=O)(=O)N2C[C@H](NCc3ccc(C(F)(F)F)cc3)[C@@H](c3ccccc3)C2)c1', '≤ 10 nM'),
  ('CC1(C)C(=O)Nc2ccc(S(=O)(=O)N3CC(Nc4ccc(F)c(F)c4)C(c4ccccc4)C3)cc21 (stereo not drawn)', '≤ 10000 nM'),
  ('Cn1cnc(S(=O)(=O)N2C[C@@H]([C@@H]3CCCOC3)[C@H](Nc3cccc(OCC(F)(F)F)c3)C2)c1 (mixture of isomers)', '≤ 100 nM'),
  ('Cn1cnc(S(=O)(=O)N2C[C@H](Nc3cc(OCC4CNC4)ncn3)[C@@H](c3ccc(F)cc3)C2)c1', '≥ 10000 nM'),
  ('CC(C)N1CCC(CN[C@H]2CN(S(=O)(=O)c3cn(C)cn3)C[C@@H]2c2ccccc2)CC1', '≤ 10000 nM'),
  ('Cn1cnc(S(=O)(=O)N2C[C@H](Nc3ccc(F)c(-c4cccnc4)c3)[C@@H](c3ccc(F)cc3)C2)c1', '≤ 10 nM'),
  ('Cn1cnc(S(=O)(=O)N2C[C@H](Nc3cc(Cl)ccn3)[C@@H](c3ccc(F)cc3)C2)c1', '≤ 10 nM'),
  ('Cn1cnc(S(=O)(=O)N2C[C@H](NC(=O)CCC(C)(F)F)[C@@H](c3ccc(F)cc3)C2)c1', '≤ 10000 nM'),
  ('Cn1cnc(S(=O)(=O)N2C[C@H](Nc3cccc(C(F)(F)F)c3)[C@@H](C3CCCO3)C2)c1 (stereo partly drawn)', '≤ 100 nM'),
  ('Cn1cnc(S(=O)(=O)N2C[C@H](Nc3cnc(C4CCC4)cn3)[C@@H](c3ccccc3)C2)c1', '≤ 10000 nM'),
  ('Cn1cc(S(=O)(=O)N2C[C@H](Nc3ccc(F)c(OC(F)(F)F)c3)[C@@H](c3ccc(F)cc3)C2)nn1', '≤ 10 nM'),
  ('Cc1nn(C2CCCC2)cc1S(=O)(=O)N1CC(Nc2ccc(F)c(F)c2)C(c2ccccc2)C1 (stereo not drawn)', '> 10000 nM'),
  ('Cn1cnc(S(=O)(=O)N2C[C@H](Nc3cc(OCC(F)(F)F)c(Cl)cn3)[C@@H](c3ccccc3)C2)c1', '≤ 10 nM'),
  ('CCCc1ccc(CN[C@H]2CN(S(=O)(=O)c3cn(C)cn3)C[C@@H]2c2ccccc2)o1', '≤ 100 nM');

###

The entries below are paired with their reported Ki.
biological target: human GlyT1c transporter (Homo sapiens (Human)); experiment: Radioligand binding assays using recombinant CHO cell membranes expressing human GlyT1; conditions: radioligand binding, human GlyT1c transporter-expressing CHO cell membranes
Parameter: Ki

INSERT INTO assay_data (compound, target_entity, result) VALUES
  ('Cn1cnc(S(=O)(=O)N2C[C@H](NC(=O)c3cnc(C(F)(F)F)cn3)[C@@H](c3ccccc3)C2)c1', 'human GlyT1c transporter (Homo sapiens (Human))', '≤ 10 µM'),
  ('CCCn1cc(C[C@@H]2CN(S(=O)(=O)c3cn(C)cn3)C[C@H]2c2ccccc2)nn1', 'human GlyT1c transporter (Homo sapiens (Human))', '≤ 10 µM'),
  ('Cn1cnc(S(=O)(=O)N2CC(NCc3ccc(C(F)(F)F)cc3Cl)C([C@@H]3CCCO3)C2)c1 (stereo partly drawn)', 'human GlyT1c transporter (Homo sapiens (Human))', '≤ 1 µM'),
  ('Cc1ccc(CO[C@H]2CN(S(=O)(=O)c3cn(C)cn3)C[C@@H]2c2ccc(F)cc2)cc1', 'human GlyT1c transporter (Homo sapiens (Human))', '≤ 0.1 µM'),
  ('Cn1cnc(S(=O)(=O)N2CC(Nc3nnccc3C(F)(F)F)C(c3ccc(F)cc3)C2)c1 (stereo not drawn)', 'human GlyT1c transporter (Homo sapiens (Human))', '≤ 10 µM'),
  ('Cn1ccc(S(=O)(=O)N2CC(Nc3ccc(F)c(F)c3)C(c3ccccc3)C2)n1 (stereo not drawn)', 'human GlyT1c transporter (Homo sapiens (Human))', '≤ 10 µM'),
  ('CCCCCCN[C@H]1CN(S(=O)(=O)c2cn(C)cn2)C[C@@H]1c1ccccc1', 'human GlyT1c transporter (Homo sapiens (Human))', '≤ 0.01 µM'),
  ('Cn1cnc(S(=O)(=O)N2C[C@H](NC(=O)c3ccc(Cl)nn3)[C@@H](c3ccccc3)C2)c1', 'human GlyT1c transporter (Homo sapiens (Human))', '≥ 10 µM'),
  ('Cn1cnc(S(=O)(=O)N2C[C@H](Nc3ccc(F)c(Cl)c3)[C@@H](c3ccccc3)C2)c1', 'human GlyT1c transporter (Homo sapiens (Human))', '≤ 0.01 µM'),
  ('Cc1cc(S(=O)(=O)N2CC(Nc3ccc(F)c(F)c3)C(c3ccccc3)C2)c(C)o1 (stereo not drawn)', 'human GlyT1c transporter (Homo sapiens (Human))', '≤ 10 µM'),
  ('Cn1cnc(S(=O)(=O)N2C[C@H](Nc3cc(-c4ccc(F)cc4)ncn3)[C@@H](c3ccc(F)cc3)C2)c1', 'human GlyT1c transporter (Homo sapiens (Human))', '≤ 0.01 µM'),
  ('Cn1cnc(S(=O)(=O)N2C[C@@H](NC(=O)c3ccc(C(F)(F)F)cc3)[C@@](O)(c3ccccc3)C2)c1 (relative stereo)', 'human GlyT1c transporter (Homo sapiens (Human))', '≤ 10 µM'),
  ('CC(C)Oc1cc(N[C@H]2CN(S(=O)(=O)c3cn(C)cn3)C[C@@H]2c2ccc(F)cc2)ncn1', 'human GlyT1c transporter (Homo sapiens (Human))', '≤ 0.1 µM'),
  ('Cn1cnc(S(=O)(=O)N2C[C@@H](C(=O)c3ccc(F)cc3)[C@H](c3ccc(F)cc3)C2)c1 (relative stereo)', 'human GlyT1c transporter (Homo sapiens (Human))', '≤ 10 µM'),
  ('Cn1cnc(S(=O)(=O)N2CC(c3ccc(F)cc3)C(O)(Cc3ccccc3)C2)c1 (stereo not drawn)', 'human GlyT1c transporter (Homo sapiens (Human))', '≤ 0.1 µM');

###

molecular target: human GlyT1c transporter (Homo sapiens (Human), UniProt P48067); assay: Radioligand binding assays using recombinant CHO cell membranes expressing human GlyT1
The entries below are paired with their reported Ki.
Parameter: Ki

INSERT INTO assay_data (compound, target_entity, parameter, result) VALUES
  ('Cn1cnc(S(=O)(=O)N2C[C@@H](C(=O)c3ccc(Cl)c(F)c3)[C@H](c3ccc(F)cc3)C2)c1 (relative stereo) [Example 319]', 'human GlyT1c transporter (Homo sapiens (Human), UniProt P48067)', 'Ki', '≤ 0.1 µM'),
  ('Cn1cnc(S(=O)(=O)N2C[C@@H](C(=O)c3cc(Cl)cc(Cl)c3)[C@H](c3ccc(F)cc3)C2)c1 (relative stereo) [Example 360]', 'human GlyT1c transporter (Homo sapiens (Human), UniProt P48067)', 'Ki', '≤ 0.1 µM'),
  ('Cn1cnc(S(=O)(=O)N2C[C@@H](Nc3cccc(F)n3)[C@H](c3ccc(F)cc3)C2)c1 (relative stereo) [Example 238]', 'human GlyT1c transporter (Homo sapiens (Human), UniProt P48067)', 'Ki', '≤ 10 µM'),
  ('Cn1cnc(S(=O)(=O)N2C[C@@H](Nc3cc(C(F)(F)F)ncn3)[C@H](C3CCCO3)C2)c1 (relative stereo) [Example 853]', 'human GlyT1c transporter (Homo sapiens (Human), UniProt P48067)', 'Ki', '≤ 1 µM');

###

molecular target: human GlyT1c transporter (Homo sapiens (Human)); assay: Radioligand binding assays using recombinant CHO cell membranes expressing human GlyT1; details: radioligand binding, human GlyT1c transporter-expressing CHO cell membranes
pKi: −log10 of the molar value.
The entries below are paired with their reported pKi.
Parameter: pKi

INSERT INTO assay_data (compound, target_entity, result) VALUES
  ('CCCCOc1cc(N[C@H]2CN(S(=O)(=O)c3cn(C)cn3)C[C@@H]2c2ccccc2)ncn1', 'human GlyT1c transporter (Homo sapiens (Human))', '≥ 7.00'),
  ('Cc1ccc(CN[C@H]2CN(S(=O)(=O)c3cn(C)cn3)C[C@@H]2c2ccccc2)s1', 'human GlyT1c transporter (Homo sapiens (Human))', '≥ 7.00'),
  ('Cc1cc(N[C@H]2CN(S(=O)(=O)c3cn(C)cn3)C[C@@H]2c2ccccc2)ncc1F', 'human GlyT1c transporter (Homo sapiens (Human))', '≥ 7.00'),
  ('Cn1cnc(S(=O)(=O)N2C[C@H](Nc3cc(OC4CCC4)ncn3)[C@@H](c3ccc(F)cc3)C2)c1', 'human GlyT1c transporter (Homo sapiens (Human))', '≥ 7.00'),
  ('Cn1cnc(S(=O)(=O)N2C[C@H](NCc3nc(-c4ccc(F)cc4)cs3)[C@@H](c3ccccc3)C2)c1', 'human GlyT1c transporter (Homo sapiens (Human))', '≥ 5.00'),
  ('Cn1cnc(S(=O)(=O)N2C[C@H](Nc3cccc(C4CCNCC4)c3)[C@@H](c3ccccc3)C2)c1', 'human GlyT1c transporter (Homo sapiens (Human))', '≤ 5.00'),
  ('Cn1cnc(S(=O)(=O)N2C[C@H](Nc3ccc(Cl)c(C(F)(F)F)c3)[C@@H](c3ccc(F)cc3)C2)c1', 'human GlyT1c transporter (Homo sapiens (Human))', '≥ 7.00'),
  ('Cn1cnc(S(=O)(=O)N2C[C@H](NCc3cccc4cncn34)[C@@H](c3ccccc3)C2)c1', 'human GlyT1c transporter (Homo sapiens (Human))', '≤ 5.00'),
  ('Cn1cnc(S(=O)(=O)N2CC(Nc3cccc(C(F)(F)F)c3)C(C3CCCO3)C2)c1 (stereo not drawn)', 'human GlyT1c transporter (Homo sapiens (Human))', '≥ 7.00'),
  ('CC(C)COC(=O)N[C@H]1CN(S(=O)(=O)c2cn(C)cn2)C[C@@H]1c1ccccc1', 'human GlyT1c transporter (Homo sapiens (Human))', '≥ 5.00'),
  ('COC(=O)c1ccc(S(=O)(=O)N2CC(Nc3ccc(F)c(F)c3)C(c3ccccc3)C2)n1C (stereo not drawn)', 'human GlyT1c transporter (Homo sapiens (Human))', '≥ 5.00'),
  ('Cn1cnc(S(=O)(=O)N2C[C@H](Nc3ccnc(N4CCOCC4)n3)[C@@H](c3ccccc3)C2)c1', 'human GlyT1c transporter (Homo sapiens (Human))', '≥ 5.00'),
  ('Cn1cnc(S(=O)(=O)N2CC(c3ccccc3)N(Cc3cccc(Cl)c3)C2=O)c1 (stereo not drawn)', 'human GlyT1c transporter (Homo sapiens (Human))', '≥ 5.00'),
  ('Cn1cc(S(=O)(=O)N2CC(Nc3ccc(F)c(F)c3)C(c3ccccc3)C2)c(C(F)(F)F)n1 (stereo not drawn)', 'human GlyT1c transporter (Homo sapiens (Human))', '≥ 5.00'),
  ('Cn1cnc(S(=O)(=O)N2C[C@@H](c3ccccc3)[C@](C)(NCc3ccc(C(F)(F)F)cc3)C2)c1 (relative stereo)', 'human GlyT1c transporter (Homo sapiens (Human))', '≥ 6.00');
